What follows is a collection of IC50 values obtained with mTOR (Homo sapiens).
Sequence (P42345 1360-2549 limits assumed): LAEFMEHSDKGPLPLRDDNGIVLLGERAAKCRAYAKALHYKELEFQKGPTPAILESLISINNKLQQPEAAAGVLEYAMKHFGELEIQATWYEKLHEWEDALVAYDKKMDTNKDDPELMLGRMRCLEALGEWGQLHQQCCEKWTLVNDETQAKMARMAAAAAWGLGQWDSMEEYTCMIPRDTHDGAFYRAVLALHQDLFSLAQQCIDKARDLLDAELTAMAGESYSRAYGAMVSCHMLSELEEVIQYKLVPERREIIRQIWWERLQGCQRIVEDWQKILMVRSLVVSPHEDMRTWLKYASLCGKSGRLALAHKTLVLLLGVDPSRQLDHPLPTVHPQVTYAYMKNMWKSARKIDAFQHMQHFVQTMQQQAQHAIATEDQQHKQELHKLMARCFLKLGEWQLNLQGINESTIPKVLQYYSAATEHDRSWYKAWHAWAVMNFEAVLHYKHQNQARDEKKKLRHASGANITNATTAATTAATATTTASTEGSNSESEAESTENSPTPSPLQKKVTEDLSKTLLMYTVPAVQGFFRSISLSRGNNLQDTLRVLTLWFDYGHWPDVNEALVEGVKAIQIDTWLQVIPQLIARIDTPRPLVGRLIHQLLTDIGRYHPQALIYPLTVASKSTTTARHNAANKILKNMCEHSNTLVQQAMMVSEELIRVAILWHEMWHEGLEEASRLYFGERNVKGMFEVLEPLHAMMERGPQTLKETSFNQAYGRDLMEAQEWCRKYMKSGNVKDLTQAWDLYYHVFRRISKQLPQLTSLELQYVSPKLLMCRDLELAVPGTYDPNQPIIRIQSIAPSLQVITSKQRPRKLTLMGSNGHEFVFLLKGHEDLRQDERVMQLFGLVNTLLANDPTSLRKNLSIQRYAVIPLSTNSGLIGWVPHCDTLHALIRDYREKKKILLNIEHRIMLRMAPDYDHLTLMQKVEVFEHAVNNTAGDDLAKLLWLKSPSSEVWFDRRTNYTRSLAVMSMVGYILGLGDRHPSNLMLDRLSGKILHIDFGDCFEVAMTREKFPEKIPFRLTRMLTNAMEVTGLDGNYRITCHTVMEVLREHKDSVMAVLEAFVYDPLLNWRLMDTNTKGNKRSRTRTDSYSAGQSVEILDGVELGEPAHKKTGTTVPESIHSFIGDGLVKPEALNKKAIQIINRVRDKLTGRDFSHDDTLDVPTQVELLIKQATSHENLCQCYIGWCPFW
measured-attribute: IC50 (nM)

CNC(=O)c1ccc(-c2ccc3ncc4c(c3c2)n(-c2cn(C(C)C)nc2C)c(=O)n4C)cn1 ... 12
CCNC(=O)c1cc(-c2ccc3ncc4c(c3c2)n(-c2cn(C)nc2C)c(=O)n4C)cnc1NC ... 58
CN(C)c1ccc(-c2ccc3ncc4c(c3c2)n(-c2ccnn2C)c(=O)n4C)cn1 ... 505
CCOc1ccc(-c2ccc3ncc4c(c3c2)n(-c2cn(CCOC)nc2C)c(=O)n4C)cn1 ... 143
Cc1nn(C)cc1-n1c(=O)n(C)c2cnc3ccc(-c4cccc(C(N)=O)c4)cc3c21 ... 231
COc1cc(-c2ccc3ncc4c(c3c2)n(-c2cn(C)nc2C)c(=O)n4C)cnc1CO ... 21
CCOc1cc(-c2ccc3ncc4c(c3c2)n(-c2cn(CC)nc2C)c(=O)n4C)ccc1OC ... 16
COc1ccc(-c2ccc3ncc4c(c3c2)n(-c2cn(CC(=O)N(C)C)nc2C)c(=O)n4C)cn1 ... 11
Cc1nn(C)cc1-n1c(=O)n(C)c2cnc3ccc(-c4cccc5c4OC(F)(F)O5)cc3c21 ... 51
Cc1ncc(-c2ccc3ncc4c(c3c2)n(-c2cn(C)nc2Cl)c(=O)n4C)cc1N ... 8

1 = CNc1cc(-c2ccc3ncc4c(c3c2)n(-c2c(C)nn(C)c2C)c(=O)n4C)cnc1CO
2 = Cc1nn(C)cc1-n1c(=O)n(C)c2cnc3ccc(-c4cccnc4)cc3c21
Lab log: flag the item ( 1 or 2 ) with the smaller IC50 figure. Please indicate the selected item by its label.
2
(2: 48 nM, 1: 70 nM)
